Molecular target: T1, glucose-dependent insulinotropic peptide (gastric inhibitory polypeptide) receptor (GIPR) (human, UniProt P48546 22-466)
T1 sequence (looked up): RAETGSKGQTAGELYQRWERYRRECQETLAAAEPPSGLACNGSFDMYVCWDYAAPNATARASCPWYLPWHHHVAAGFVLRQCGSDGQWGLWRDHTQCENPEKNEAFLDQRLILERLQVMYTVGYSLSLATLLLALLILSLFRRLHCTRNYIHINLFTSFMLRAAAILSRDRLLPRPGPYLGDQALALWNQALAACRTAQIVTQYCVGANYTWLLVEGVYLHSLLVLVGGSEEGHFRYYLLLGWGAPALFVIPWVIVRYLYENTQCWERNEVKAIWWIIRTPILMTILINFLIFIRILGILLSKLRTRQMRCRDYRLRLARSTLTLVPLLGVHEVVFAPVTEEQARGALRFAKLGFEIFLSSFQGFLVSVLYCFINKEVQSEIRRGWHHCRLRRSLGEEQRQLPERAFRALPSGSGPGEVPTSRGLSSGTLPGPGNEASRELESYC
Test: cell-based or functional assay
Starred links: 1 amine or outer side, 2 acyl side, 3 side chain; linkers in the order of their positions; H or OH if unused. Non-standard residues stand in square brackets, D forms with d. Groups on a side chain read outwards from the residue. Primed or numbered codes have the meaning given here. No end group written: not given here. *: point of attachment. Dodecanoyl(12-OPh(4-COOH)) = O=C(O)c1ccc(OCCCCCCCCCCCC(=O)*)cc1; γGlu = O=C(O)[C@H](CCC(=O)[*:2])N[*:1]; Stearoyl = CCCCCCCCCCCCCCCCCC(=O)*; Palmitoyl = CCCCCCCCCCCCCCCC(=O)*; αMeF = C[C@](N)(Cc1ccccc1)C(=O)O; αMeK = C[C@](N)(CCCCN)C(=O)O; Lauroyl = CCCCCCCCCCCC(=O)*; αMeS = C[C@](N)(CO)C(=O)O; PEG2′ = not defined here; Aib = CC(C)(N)C(=O)O
assay_readout: cAMP Primary assay EC50 GIP-R (nM)

Reported cAMP Primary assay EC50 GIP-R for H[Aib]EGS[αMeF]TSDV[αMeS]S[αMeF]LEGEAA[αMeK]E[αMeF]IA[αMeF]VV[αMeK]GK([PEG2′-PEG2′-γGlu-Stearoyl])-NH2 [SEQ ID NO 99] : what is it?
25

So what's the measured cAMP Primary assay EC50 GIP-R for this one? H[Aib]EGS[αMeF]TSDV[αMeS]S[αMeF]LEGEAA[αMeK]E[αMeF]IA[αMeF]VV[αMeK]K([PEG2′-PEG2′-γGlu-Stearoyl])G-NH2 [SEQ ID NO 100]
25

If you can, please state the reported cAMP Primary assay EC50 GIP-R value of H[Aib]EGS[αMeF]TSDV[αMeS]S[αMeF]LEGEAAK([PEG2′-PEG2′-γGlu-Palmitoyl])E[αMeF]IA[αMeF]VV[αMeK]GG-NH2 [SEQ ID NO 109] .
26

Requested read-out: cAMP Primary assay EC50 GIP-R. Entry: H[Aib]EGS[αMeF]TSDV[αMeS]S[αMeF]LEGK([PEG2′-PEG2′-γGlu-Stearoyl])AA[αMeK]E[αMeF]IA[αMeF]VV[αMeK]GG-NH2 [SEQ ID NO 112]
25

Record request: cAMP Primary assay EC50 GIP-R value, item H[Aib]EK([PEG2′-PEG2′-γGlu-Stearoyl])S[αMeF]TSDV[αMeS]S[αMeF]LEGEAA[αMeK]E[αMeF]IA[αMeF]VV[αMeK]GG-NH2 [SEQ ID NO 125]
25

Please report the recorded cAMP Primary assay EC50 GIP-R for H[Aib]EGS[αMeF]TSDV[αMeS]S[αMeF]LEGEAA[αMeK]E[αMeF]K([PEG2′-PEG2′-γGlu-Stearoyl])A[αMeF]VV[αMeK]GG-NH2 [SEQ ID NO 106] .
25

I am curious: what cAMP Primary assay EC50 GIP-R value has been reported for H[Aib]EGSK([PEG2′-PEG2′-γGlu-Stearoyl])TSDV[αMeS]S[αMeF]LEGEAA[αMeK]E[αMeF]IA[αMeF]VV[αMeK]GG-NH2 [SEQ ID NO 123] ?
26

Request the reported cAMP Primary assay EC50 GIP-R associated with H[Aib]EGS[αMeF]TSDV[αMeS]S[αMeF]LEGEAAK([PEG2′-Stearoyl])E[αMeF]IA[αMeF]VV[αMeK]GG-NH2 [SEQ ID NO 152]
28

Requested read-out: cAMP Primary assay EC50 GIP-R. Entry: H[Aib]EGS[αMeF]TSDV[αMeS]S[αMeF]LEGEAAK([PEG2′-PEG2′-Lauroyl])E[αMeF]IA[αMeF]VV[αMeK]GG-NH2 [SEQ ID NO 135]
27

# input binder: H[Aib]EGS[αMeF]TSDV[αMeS]S[αMeF]LEGEAK([PEG2′-PEG2′-γGlu-Stearoyl])[αMeK]E[αMeF]IA[αMeF]VV[αMeK]GG-NH2 [SEQ ID NO 110] ; wanted: its cAMP Primary assay EC50 GIP-R
25

# get_value(readout='cAMP Primary assay EC50 GIP-R', item= H[Aib]EGS[αMeF]TSDV[αMeS]S[αMeF]LEGEAAK([PEG2′-Dodecanoyl(12-OPh(4-COOH))])E[αMeF]IA[αMeF]VV[αMeK]GG-NH2 [SEQ ID NO 143] )
27

Reported cAMP Primary assay EC50 GIP-R, binder H[Aib]K([PEG2′-PEG2′-γGlu-Stearoyl])GS[αMeF]TSDV[αMeS]S[αMeF]LEGEAA[αMeK]E[αMeF]IA[αMeF]VV[αMeK]GG-NH2 [SEQ ID NO 126] : ____
25

Which measured cAMP Primary assay EC50 GIP-R value corresponds to H[Aib]EGS[αMeF]TSDV[αMeS]S[αMeF]LEGEK([PEG2′-PEG2′-γGlu-Stearoyl])A[αMeK]E[αMeF]IA[αMeF]VV[αMeK]GG-NH2 [SEQ ID NO 111] ?
25

Reported cAMP Primary assay EC50 GIP-R for H[Aib]EGS[αMeF]TSDV[αMeS]S[αMeF]K([PEG2′-PEG2′-γGlu-Stearoyl])EGEAA[αMeK]E[αMeF]IA[αMeF]VV[αMeK]GG-NH2 [SEQ ID NO 115] : what is it?
25

What value of cAMP Primary assay EC50 GIP-R has been reported for the following binder? H[Aib]EGS[αMeF]TK([PEG2′-PEG2′-γGlu-Stearoyl])DV[αMeS]S[αMeF]LEGEAA[αMeK]E[αMeF]IA[αMeF]VV[αMeK]GG-NH2 [SEQ ID NO 121]
25

I'd like to know its cAMP Primary assay EC50 GIP-R. The binder in question is H[Aib]EGS[αMeF]TSDV[αMeS]S[αMeF]LEGEAA[αMeK]K([PEG2′-PEG2′-γGlu-Stearoyl])[αMeF]IA[αMeF]VV[αMeK]GG-NH2 [SEQ ID NO 108]
25

So what does the record say about cAMP Primary assay EC50 GIP-R for H[Aib]EGS[αMeF]TSDV[αMeS]S[αMeF]LEGEAAK([PEG2′-PEG2′-Dodecanoyl(12-OPh(4-COOH))])E[αMeF]IA[αMeF]VV[αMeK]GG-NH2 [SEQ ID NO 144] ?
26

src = patent US20200079833A1
